The following compounds are listed with their measured TGI values.
Test system: SF-295 CNS
Experiment: NCI tumour cell line growth inhibition, 48 h
propertyLabel: TGI (µM)

In [3]: df
Out[3]:
                                   compound  propertylabel  comparisonsign  readoutnumber
0  COc1cc(/C=C2\C(=O)N(c3ccccc3)c3ccccc32)cc(OC)c1OC            TGI               =           81.3
1    CCn1c(-c2nonc2N)nc2cncc(C(=O)NCCNC)c21            TGI               >             25
2  C=C(Br)C(C)(Br)CCC(Br)C(C)(C)Br (stereo not given)            TGI               =             62
3    CN(C)CCNC1=CC(=O)c2nc3ccccc3c3ccnc1c23            TGI               =           19.8
4  CCOC(=O)NC(=O)c1cn(CCCOC(=O)NCCCCCCNC(=O)OCCCn2cc(C(=O)NC(=O)OCC)c(=O)[nH]c2=O)c(=O)[nH]c1=O            TGI               =           49.4
